# test description: qHTS for Inhibitors of Cell Surface uPA Generation: Wild-type Protective Antigen (WT-PrAg) Counterscreen for Cherry-picked Compounds
# reported conditions: cells, WT protective antigen toxicity counterscreen; series mostly up to 115 µM
Results filed as inconclusive are left out. Calls of active or inactive are those of the source. Calls come from the whole dose curve.
measurement name: outcome

Previously resolved entries follow.
* Cc1ccc(/C=N/NC(=O)c2ccc3nc[nH]c3c2)s1 | inactive
* CNC(=O)[C@@H]1CCC(=O)N1 | inactive
* CCOC(=O)c1cc(-c2ccccc2C)n(CC2CC(c3ccc(OC)cc3)=NO2)n1 (stereo not given) | inactive
* O=C(c1cccc(F)c1)N1CCN(Cc2cccc(Br)c2)CC1 | inactive
* Cc1ccc(-n2ncc(C(=O)NC3CC3)c2C2CCN(C(=O)OC(C)(C)C)CC2)cc1 | inactive
* CCOc1ccc(CCNC(=O)Cc2ccc(NC3=NC4CS(=O)(=O)CC4S3)cc2)cc1OCC (stereo not given) | inactive
* C=C1C(=O)[C@@]23[C@H](O)C[C@@H]4C(C)(C)CC[C@H](O)[C@]4(C)[C@@H]2C[C@H](O)[C@@H]1[C@H]3O | inactive
* CCOc1ccc(Cl)cc1/C=N/NC(=O)c1ccccc1 | inactive
* COc1cccc(C(=O)NCc2ccc3[nH]c(C)cc3c2)c1 | inactive

Q. Data request, read-out outcome, for O=C(CCCOc1ccc(Cl)cc1Cl)NCc1ccncc1
A. inactive
